- System: OVCAR-3 ovarian
- method_notes: NCI tumour cell line growth inhibition, 48 h; in the data active = GI50 below about 0.43 µM; inactive = the rest
// allowed return values: active, inactive

COC(=O)NC1C(C)OC(OC2C/C=C(/C)C3C=CC4C(OC5CC(OC6CC(O)C(OC7CC(O)C(OC)C(C)O7)C(C)O6)C(O)C(C)O5)C(C)CC(C)C4C3(C)/C(O)=C3\C(=O)OC4(CC(C)C(CO)=CC4/C=C\2C)C3=O)CC1(C)[N+](=O)[O-] (stereo not given)
inactive
CC1=C[C@H]2c3c(c(O)c(O)c4oc5c(C)cccc5c(=O)c34)[C@H](c3cc(O)c(O)c4oc5c(C)cccc5c(=O)c34)[C@H]2C(C)(C)C1
inactive
Cn1cncc1[C@@](N)(c1ccc(Cl)cc1)c1ccc2c(c1)c(-c1cccc(Cl)c1)cc(=O)n2C
inactive
COc1cc2nc(-c3cnc(N(C)C)nc3)nc(NC3CCN(Cc4ccccc4)CC3)c2cc1OC
inactive

[in] What is the recorded call for this molecule in the test? CC[C@@H](C(=O)[C@@H](C)[C@@H](O)[C@H](C)[C@@H]1O[C@@H]([C@@H](CC)C(=O)O)CC[C@@H]1C)C1O[C@]2(C=CC(=O)[C@]3(CC[C@@](C)([C@H]4CC[C@](O)(CC)[C@H](C)O4)O3)O2)[C@H](C)C[C@@H]1C (stereo not given in full)
[out] active

[in] What is the recorded call for this molecule in the test? "COc1ccccc1OCC(=O)Nc1sc2c(c1C(N)=O)CCC2"
[out] inactive

[in] What is the recorded call for this molecule in the test? "COc1ccc(N(CC(=O)NCCC[Te]c2ccccc2)C(=O)c2ccccc2)cc1"
[out] inactive

[in] What is the recorded call for this molecule in the test? O=C1CC(c2ccc(N3CCOCC3)cc2)(c2ccsc2)NC(=O)C1Sc1ccccc1Cl (stereo not given)
[out] inactive

[in] What is the recorded call for this molecule in the test? O=S(=O)(O)O.[NH-]C1CCCCC1[NH-].[Pt+2] (stereo not given)
[out] inactive

[in] What is the recorded call for this molecule in the test? "C[n+]1c(/C=C\c2ccc(Cl)cc2)ccc2ccccc21"
[out] inactive

[in] What is the recorded call for this molecule in the test? "COc1cccc(-c2cc(=O)c3cc(OC)c(OC)cc3[nH]2)c1"
[out] inactive

---

- Tested on: UO-31 renal
- method_notes: NCI tumour cell line growth inhibition, 48 h
measured_quantity: TGI

# count of solved cases: 6
COc1ccc(N(CC(=O)NCCC[Te]c2ccccc2)C(=O)c2ccccc2)cc1
10.9 µM
CCOC(=O)/C(=C\c1ccc(O)c(OC)c1)C(=O)c1ccccc1
> 51 µM
COc1cc(N(CCC#N)CCC#N)ccc1/C=C1\SC(=S)NC1=O
> 100 µM
COc1cc(/C=C2\C[C@H]3[C@@H]4CC=C5C[C@@H](O)CC[C@]5(C)[C@H]4CC[C@]3(C)[C@H]2O)cc(OC)c1OC
36.8 µM
COc1cc(NS(C)(=O)=O)ccc1Nc1c2ccc(Cl)cc2nc2c(OC)cccc12
0.698 µM
O=S1(=O)OCCOS(=O)(=O)C1I
> 100 µM

Field: next molecule
TGI for COC(=O)C1=C2CCC(=O)[C@@]2(C)C(OC(C)=O)C=CC1 (some centres not stated) is > 100 µM

---

- System: HT29 colon
- method_notes: NCI tumour cell line growth inhibition, 48 h
measured_quantity: TGI

# count of solved cases: 5
CC[C@H](C)[C@H]1NC(=O)[C@@H](N[C@](C)(O)[C@@H](N)CC(C)C)[C@@H](C)OC(=O)[C@H](Cc2ccc(OC)cc2)N(C)C(=O)[C@@H]2CCCN2C(=O)[C@H](CC(C)C)NC(=O)[C@@H](C)C(=O)[C@H](C(C)C)OC(=O)C[C@@H]1O
0.702 µM
CC1=NN(c2ccccc2)C(=O)C1=C1SCCS1
> 100 µM
CC(=O)C1C(=O)C(=O)N(c2cccc(C)c2C)C1=O (configuration not stated)
> 100 µM
Cc1ccc(NC(=O)C(=O)C2C(=O)N(c3ccccc3)N=C2N)cc1C (configuration not stated)
> 100 µM
COC(=O)C1=C(O)c2cc(OC)c(OC)c(OC)c2[C@H](c2cc(OC)c(OC)c(OC)c2)C1C(=O)OC (some centres not stated)
61.6 µM

TGI for Cc1ccccc1C1CC(=O)CC(c2ccccc2C)C12C(=O)NC(=O)NC2=O (configuration not stated) is > 100 µM

TGI for "CCOC(=O)c1ccc(Nc2nc3cc(C(F)(F)F)ccc3nc2-c2ccccc2)cc1" is > 10 µM

TGI for "COc1cc(/C=C2\[C@H]3c4c(c(OC)c(C)c(OC)c4OC)C[C@@H](C(=O)N2Cc2ccccc2)N3C(=O)OCC(C)C)c(OC)c(C)c1OC" is > 100 µM

TGI for "CSC1=C(C(=O)Nc2ccc(Cl)cc2)C(N)=NC1=O" is > 100 µM

TGI for "CS(=O)(=O)NNS(=O)(=O)c1cccc([N+](=O)[O-])c1" is > 100 µM

TGI for CCCCCCCC1(N=[N+]=[N-])C(=O)c2ccccc2N(C)C1=O (configuration not stated) is > 100 µM

TGI for CC(=O)OC(/C=C1/C=CC(=O)O1)COC(=O)c1ccccc1 (configuration not stated) is > 31.2 µM

---

Reported TGI by item:
- System: SK-MEL-2 melanoma
- method_notes: NCI tumour cell line growth inhibition, 48 h
Kindly answer with a numeric value in µM, unit omitted.

O=S1c2ccccc2N=C(c2ccc3ccccc3c2)CC1C1=CC=CCC1 (stereo unspecified)
40.5
CCOC(=O)/C(=C\c1ccc(O)c(OC)c1)C(=O)c1ccccc1
34.8

TGI for "Cn1cc(-c2nc(-c3c[nH]c4ncccc34)cs2)c2cc(F)ccc21" is 11.1

---

- Tested on: CAKI-1 renal
- method_notes: NCI tumour cell line growth inhibition, 48 h
Reported TGI by item:

# count of solved cases: 5
CC(=N/NC(=S)N1CCCCC1)/C(=N\NC(=S)N1CCCCC1)c1ccccc1
4.22 µM
Cn1ccnc1C(=O)/C=C/c1ccc(C(=O)Nc2ccc(Cl)cc2)cc1
> 33.3 µM
C=CC(Cl)(CBr)CCC(Br)=C(C)C (configuration not stated)
21.2 µM
CCOc1cccc(/C=N/NC(=O)c2ccc(Nc3ccnc(C(F)(F)F)c3)cc2)c1O
> 100 µM
COc1cccc(C2c3cc4c(cc3OC(C)(O)C2C)OCO4)c1O (configuration not stated)
15.7 µM

TGI for "O=C(O)CN1CCNCCN(CP(=O)(O)O)CC1" is > 100 µM

TGI for "Cn1c2ccccc2c2c(-c3ccccc3)[n+]3ccccc3nc21" is > 100 µM

TGI for "COC(=O)c1ccc(OCc2ccc3nc(OC)c(OC)nc3c2)cc1" is > 100 µM

TGI for "CCc1n[nH]c(=S)n1/N=C\c1ccc(-c2ccccc2Cl)o1" is > 100 µM

TGI for "Cn1cc(-c2nc(-c3c[nH]c4ncccc34)cs2)c2cc(F)ccc21" is 8.44 µM

TGI for CCOC(C)C(/C=N/NC(N)=S)=NNC(N)=S (configuration not stated) is > 100 µM

TGI for CCCCCCCC1(N=[N+]=[N-])C(=O)c2ccccc2N(C)C1=O (configuration not stated) is > 100 µM

---

- Tested on: COLO 205 colon
- method_notes: NCI tumour cell line growth inhibition, 48 h; in the data active = GI50 below about 0.43 µM; inactive = the rest
// allowed return values: active, inactive

Cn1nccc1Nc1nccc(-c2cc3c(s2)C(C)(C)N(CCN2CCOCC2)C3=O)n1
active

[in] What is the recorded call for this compound in the test? COC(=O)NC1C(C)OC(OC2C/C=C(/C)C3C=CC4C(OC5CC(OC6CC(O)C(OC7CC(O)C(OC)C(C)O7)C(C)O6)C(O)C(C)O5)C(C)CC(C)C4C3(C)/C(O)=C3\C(=O)OC4(CC(C)C(CO)=CC4/C=C\2C)C3=O)CC1(C)[N+](=O)[O-] (configuration not stated)
[out] inactive

---

- Tested on: OVCAR-4 ovarian
- method_notes: NCI tumour cell line growth inhibition, 48 h
measured_quantity: TGI

# count of solved cases: 10
Cc1cc(NC(=S)Nc2ccccc2)c(NC(=S)Nc2ccccc2)cc1C
> 100 µM
COc1cccc2c1CCc1ccccc1CC2=O
> 100 µM
C/C=C(\C)C(=O)N[C@H]1CC[C@]2(C)C3CC[C@@]4(C)C(CC[C@@H]4C(C)N(C)C)C3CCC2[C@H]1OC(C)=O (stereo partly drawn)
14.6 µM
O=C(O)CN1CCNCCN(CP(=O)(O)O)CC1
> 100 µM
O=C1/C(=C/C=C/c2ccccc2)N=C(c2ccccc2)N1C1Nc2cc3c(cc2S1)NC(N1C(=O)/C(=C/C=C/c2ccccc2)N=C1c1ccccc1)S3 (stereo not drawn)
> 100 µM
C[n+]1c2ccccc2c(CNc2ccc(S(=O)(=O)N=C(N)N)cc2)c2ccccc21
> 100 µM
CCOC(=O)c1c(N)nn2c1cc1cccccc12
> 100 µM
Cc1cc2c(cc1Cl)SC1=CC(=O)N(c3ccccc3)C1=NS2(=O)=O
> 100 µM
COc1ccc(CN2C[C@H]3[C@@H](CC(=O)O[C@H]3C)CC2=O)cc1
> 100 µM
COc1ccc2c(c1)C(=O)/C(=C/c1cccc(OCC(=O)Nc3nc4c(s3)CCCC4)c1)O2
8.52 µM

TGI for "CCCN(CCC)C(=O)C1=Cc2ccc(-c3ccc(C(=O)N4CCCC4)cc3)cc2N=C(N)C1" is 69.5 µM

TGI for "Nc1ccccc1CCCC(=O)O" is > 100 µM

TGI for "CC1=NN(c2ccccc2)C(=O)C1=C1SCCS1" is > 100 µM

TGI for O=C1C=CC2(O[C@H](c3ccccc3)[C@@H](c3ccccc3)O2)C(SC(=O)c2ccccc2)C1 (stereo partly drawn) is 5.13 µM

TGI for O=[N+]([O-])C(Cl)C(Cl)C(Cl)=C(Cl)Cl (stereo not drawn) is 31.9 µM

TGI for COC(=O)C1=C(O)c2cc(OC)c(OC)c(OC)c2[C@H](c2cc(OC)c(OC)c(OC)c2)C1C(=O)OC (stereo partly drawn) is > 100 µM

TGI for "COc1cc(N=CN(C)C)c2ncccc2c1" is > 100 µM

TGI for "CCOC(=O)Cc1nnc2c(-c3ccccc3)nc3ccccc3n12" is > 100 µM

All values here come from PubChem BioAssay (NCI).
